- EXPERIMENTAL TARGET: T1, wild-type CNTFR-HIS (human, UniProt P26992 23-342)
- T1 construct: also called wtCNTFR-HIS; HIS tagged CNTFR; not shown: HIS tag
- T1 sequence: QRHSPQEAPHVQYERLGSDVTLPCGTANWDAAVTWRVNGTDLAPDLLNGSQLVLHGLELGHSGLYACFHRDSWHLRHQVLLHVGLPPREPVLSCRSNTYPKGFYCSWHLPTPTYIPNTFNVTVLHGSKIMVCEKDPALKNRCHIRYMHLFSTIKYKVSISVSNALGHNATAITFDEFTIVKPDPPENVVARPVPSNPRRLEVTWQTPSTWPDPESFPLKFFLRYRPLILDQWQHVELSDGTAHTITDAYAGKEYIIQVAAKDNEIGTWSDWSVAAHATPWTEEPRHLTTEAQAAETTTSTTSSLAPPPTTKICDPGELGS
- MEASUREMENT PROTOCOL: flow cytometry, yeast-displayed CLCF1 construct, soluble CNTFR titrated, apparent Kd
Friendly reminder: Kd below 0.2 nM is yes (1), at or above is no (0).

| BINDER | LABEL |
| --- | --- |
| v2 (ligand) CLCF1 variant displayed on yeast as Aga2p fusion with c-myc tag: LNRTGDPGPGPSIQKTYDLTRYLEHQLRSLAGTYLNYLGPPFNEPDFNPPRLGAETLPRATVDLEVWRSLNDKLRLTQNYEAYSHFLCYLRGLNRRAATAELRRSLAHFCTSLQGLLGSIAGVMAALGYPLPQPLPGTEPTWTPGPARSDFLQKMDDFWLLKELQTWLLRSAKDFNRLKKKMQPPAAAVTLHLGAHGF | no (0) |

Query string: Is 0.2 nM strictly greater than the binder's reported Kd? binder: yeast-displayed FRR-CLCF1 (L86F, Q96R, H148R) (ligand, not shown: large carriers; small tags and cut ends, also called the variant with all three mutations) LNRTGDPGPGPSIQKTYDLTRYLEHQLRSLAGTYLNYLGPPFNEPDFNPPRLGAETLPRATVDLEVWRSLNDKLRLTQNYEAYSHFLCYLRGLNRRAATAELRRSLAHFCTSLQGLLGSIAGVMAALGYPLPQPLPGTEPTWTPGPARSDFLQKMDDFWLLKELQTWLWRSAKDFNRLKKKMQPPAAAVTLHLGAHGF
Result string: no (0)

Query string: Same thing, different binder: v3 (ligand) CLCF1 variant displayed on yeast as Aga2p fusion with c-myc tag: LNRTGDPGPGPSIQKTYDLTRYLEHQLRSLAGTYLNYLGPPFNEPDFNPPRLGAETLPRATVDLEVWRSLNDKLRLTQNYEAYSHFLCYLRGLNRRAATAELRRSLAHFCTSLQGLLGSIAGVMAALGYPLPQPLPGTEPTWTPGPARSDFLQKMDDFWLLKELQTWLWRSAKDFNRLKRKMQPPAAAVTLHLGAHGF
Result string: no (0)

Query string: v4 (ligand, The five consensus mutations without Y22C) CLCF1 variant displayed on yeast as Aga2p fusion with c-myc tag: LNRTGDPGPGPSIQKTYDLTRYLEHQLRSLAGTYLNYLGPPFNEPDFNPPRLGAETLPRATVDLEVWRSLNDKLRLTQNYEAYSHFLCYLRGLNRRAATAELRRSLAHFCTSLQGLLGSIAGVMAALGYPLPQPLPGTEPTWTPGPARSDFLQKMDDFWLLKELQTWLLRSAKDFNRLKRKMQPPAAAVTLHLGAHGF ?
Result string: yes (1)

Query string: Same question for yeast-displayed CLCF1 variant with Y22C, L86F, Q96R, H148R, W169L, K180R (ligand, not shown: large carriers; small tags and cut ends, also called the resulting variant (five consensus mutations combined with Y22C)) LNRTGDPGPGPSIQKTYDLTRCLEHQLRSLAGTYLNYLGPPFNEPDFNPPRLGAETLPRATVDLEVWRSLNDKLRLTQNYEAYSHFLCYLRGLNRRAATAELRRSLAHFCTSLQGLLGSIAGVMAALGYPLPQPLPGTEPTWTPGPARSDFLQKMDDFWLLKELQTWLLRSAKDFNRLKRKMQPPAAAVTLHLGAHGF please.
Result string: yes (1)

Query string: Now consider v5 (ligand) CLCF1 variant displayed on yeast as Aga2p fusion with c-myc tag: LNRTGDPGPGPSIQKTYDLTRCLEHQLRSLAGTYLNYLGPPFNEPDFNPPRLGAETLPRATVDLEVWRSLNDKLRLTQNYEAYSHFLCYLRGLNRRAATAELRRSLAHFCTSLQGLLGSIAGVMAALGYPLPQPLPGTEPTWTPGPARSDFLQKMDDFWLLKELQTWLWRSAKDFNRLKKKMQPPAAAVTLHLGAHGF .
Result string: yes (1)
